Target Entity: T1, OC2 CUT domain (human, UniProt O95948 317-417)
T1 sequence: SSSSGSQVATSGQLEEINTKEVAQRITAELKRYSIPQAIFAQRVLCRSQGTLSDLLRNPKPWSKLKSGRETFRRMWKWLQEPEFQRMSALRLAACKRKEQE
Procedure Details: ITC; 25 C; ITC: 1X PBS pH 7.4, 0.005% Tween-20, 1 mM beta-ME, 25 C (also 12 and 30 C for heat capacity); BLI: 1X PBS, 0.5 mM TCEP, 0.005% Tween-20
Condition Set: protein: recombinant; tags: His6-MBP, removed by TEV (same protocol as OC2)
Quantity: Kd (µM)
Quick note: give the figure in µM, leave out the unit.

Fill in: Kd of PEG10 promoter DNA (12mer duplex) (dsDNA) DNA 1: AGATCGATTTGC DNA 2: GCAAATCGATCT is ___
2.03
